Assay: AUC in CD1 mouse at 30 mg/kg, po
Type: ADME, organism-based
Set-up: dose 30 mg/kg, route oral
Conditions: plasma
Property measured: AUC (µg·h/mL)

{"Smi": "C[C@]12CC[C@@H]3c4ccc(O)cc4C[C@@H](CCCCCCCC[C@H](CCCC(F)(F)C(F)(F)C(F)(F)C(F)(F)F)C(=O)O)[C@H]3[C@@H]1CC[C@@H]2O", "Meas value": 470}
{"Smi": "C[C@]12CC[C@@H]3c4ccc(O)cc4C[C@@H](CCCCCCCC[C@@H](CCCC(F)(F)C(F)(F)C(F)(F)C(F)(F)F)C(=O)O)[C@H]3[C@@H]1CCC2=O", "Meas value": 468}
{"Smi": "C[C@]12CC[C@@H]3c4ccc(O)cc4C[C@@H](CCCCCCCC[C@@H](CCCC(F)(F)C(F)(F)C(F)(F)C(F)(F)F)C(=O)O)[C@H]3[C@@H]1CC[C@@H]2O", "Meas value": 274}

---

# reported bioavailability; entries follow
Assay: Bioavailability in CD1 mouse
Assay type: ADME, organism-based
Details: in vivo
Property measured: bioavailability (%)

{"Smi": "C[C@]12CC[C@@H]3c4ccc(O)cc4C[C@@H](CCCCCCCC[C@H](CCCC(F)(F)C(F)(F)C(F)(F)C(F)(F)F)C(=O)O)[C@H]3[C@@H]1CC[C@@H]2O", "Meas value": 35}
{"Smi": "C[C@]12CC[C@@H]3c4ccc(O)cc4C[C@@H](CCCCCCCC[C@@H](CCCC(F)(F)C(F)(F)C(F)(F)C(F)(F)F)C(=O)O)[C@H]3[C@@H]1CC[C@@H]2O", "Meas value": 37}
{"Smi": "C[C@]12CC[C@@H]3c4ccc(O)cc4C[C@@H](CCCCCCCC[C@@H](CCCC(F)(F)C(F)(F)C(F)(F)C(F)(F)F)C(=O)O)[C@H]3[C@@H]1CCC2=O", "Meas value": 40}

---

Assay: Bioavailability in Sprague-Dawley rat
Assay type: ADME, organism-based
Settings: in vivo
# reported bioavailability; entries follow

{"Molecule": "C[C@]12CC[C@@H]3c4ccc(O)cc4C[C@@H](CCCCCCCC[C@H](CCCC(F)(F)C(F)(F)C(F)(F)C(F)(F)F)C(=O)O)[C@H]3[C@@H]1CC[C@@H]2O", "bioavailability, %": 37}
{"Molecule": "C[C@]12CC[C@@H]3c4ccc(O)cc4C[C@@H](CCCCCCCC[C@@H](CCCC(F)(F)C(F)(F)C(F)(F)C(F)(F)F)C(=O)O)[C@H]3[C@@H]1CC[C@@H]2O", "bioavailability, %": 33}
{"Molecule": "C[C@]12CC[C@@H]3c4ccc(O)cc4C[C@@H](CCCCCCCCC(CCCC(F)(F)C(F)(F)C(F)(F)C(F)(F)F)C(=O)O)[C@H]3[C@@H]1CC[C@@H]2O (some centres undefined)", "bioavailability, %": 35}
{"Molecule": "C[C@]12CC[C@@H]3c4ccc(O)cc4C[C@@H](CCCCCCCC[C@@H](CCCC(F)(F)C(F)(F)C(F)(F)C(F)(F)F)C(=O)O)[C@H]3[C@@H]1CCC2=O", "bioavailability, %": 32}

---

Test system: Mus musculus
Test: Antagonist effect on estrogen activity assessed as inhibition of estrogen-stimulated uterine weight gain in ovariectomized mouse at 3 mg/kg, po
Assay type: functional
# reported inhibition in vivo at 3 mg/kg; entries follow

{"Compound": "C[C@]12CC[C@@H]3c4ccc(O)cc4C[C@@H](CCCCCCCC[C@H](CCCC(F)(F)C(F)(F)C(F)(F)C(F)(F)F)C(=O)O)[C@H]3[C@@H]1CC[C@@H]2O", "Measured on": "Mus musculus", "inhibition in vivo at 3 mg/kg (%)": 88}
{"Compound": "C[C@]12CC[C@@H]3c4ccc(O)cc4C[C@@H](CCCCCCCC[C@@H](CCCC(F)(F)C(F)(F)C(F)(F)C(F)(F)F)C(=O)O)[C@H]3[C@@H]1CCC2=O", "Measured on": "Mus musculus", "inhibition in vivo at 3 mg/kg (%)": 85}
{"Compound": "C[C@]12CC[C@@H]3c4ccc(O)cc4C[C@@H](CCCCCCCCC(CCCC(F)(F)C(F)(F)C(F)(F)C(F)(F)F)C(=O)O)[C@H]3[C@@H]1CC[C@@H]2O (stereo not given in full)", "Measured on": "Mus musculus", "inhibition in vivo at 3 mg/kg (%)": 87}
{"Compound": "C[C@]12CC[C@@H]3c4ccc(O)cc4C[C@@H](CCCCCCCCCC(CCCC(F)(F)C(F)(F)F)C(=O)O)[C@H]3[C@@H]1CC[C@@H]2O (stereo not given in full)", "Measured on": "Mus musculus", "inhibition in vivo at 3 mg/kg (%)": 30}
{"Compound": "C[C@]12CC[C@@H]3c4ccc(O)cc4C[C@@H](CCCCCCCCC(CCCC(F)(F)C(F)(F)F)C(=O)O)[C@H]3[C@@H]1CC[C@@H]2O (stereo not given in full)", "Measured on": "Mus musculus", "inhibition in vivo at 3 mg/kg (%)": 67}

---

Assay: Bioavailability in cynomolgus monkey
Type: ADME, organism-based, Macaca fascicularis
Conditions: in vivo

{"Smi": "C[C@]12CC[C@@H]3c4ccc(O)cc4C[C@@H](CCCCCCCC[C@@H](CCCC(F)(F)C(F)(F)C(F)(F)C(F)(F)F)C(=O)O)[C@H]3[C@@H]1CC[C@@H]2O", "bioavailability [%]": 0.48}
{"Smi": "C[C@]12CC[C@@H]3c4ccc(O)cc4C[C@@H](CCCCCCCC[C@@H](CCCC(F)(F)C(F)(F)C(F)(F)C(F)(F)F)C(=O)O)[C@H]3[C@@H]1CCC2=O", "bioavailability [%]": 3.1}

---

Test: AUC in CD1 mouse at 10 mg/kg, iv
Type: ADME, organism-based
Set-up: dose 10 mg/kg, route intravenous
Details: plasma
# reported AUC; entries follow

{"Smi": "C[C@]12CC[C@@H]3c4ccc(O)cc4C[C@@H](CCCCCCCC[C@H](CCCC(F)(F)C(F)(F)C(F)(F)C(F)(F)F)C(=O)O)[C@H]3[C@@H]1CC[C@@H]2O", "Units of measure": "µg·h/mL", "AUC": 447}
{"Smi": "C[C@]12CC[C@@H]3c4ccc(O)cc4C[C@@H](CCCCCCCC[C@@H](CCCC(F)(F)C(F)(F)C(F)(F)C(F)(F)F)C(=O)O)[C@H]3[C@@H]1CC[C@@H]2O", "Units of measure": "µg·h/mL", "AUC": 244}
{"Smi": "C[C@]12CC[C@@H]3c4ccc(O)cc4C[C@@H](CCCCCCCC[C@@H](CCCC(F)(F)C(F)(F)C(F)(F)C(F)(F)F)C(=O)O)[C@H]3[C@@H]1CCC2=O", "Units of measure": "µg·h/mL", "AUC": 389}

---

Test system: Mus musculus
Assay: Antagonist effect on estrogen activity assessed as inhibition of estrogen-stimulated uterine weight gain in ovariectomized mouse at 1 mg/kg, po
Type: functional
Tag: Y if measured inhibition in vivo at 1 mg/kg is not below 50%, N if it is.

{"Molecule": "C[C@]12CC[C@@H]3c4ccc(O)cc4C[C@@H](CCCCCCCCCC(CCCC(F)(F)C(F)(F)C(F)(F)C(F)(F)F)C(=O)O)[C@H]3[C@@H]1CC[C@@H]2O (stereo not given in full)", "Measured on": "Mus musculus", "Label": "N"}
{"Molecule": "C[C@]12CC[C@@H]3c4ccc(O)cc4C[C@@H](CCCCCCCCC(CCCC(F)(F)C(F)(F)C(F)(F)C(F)(F)F)C(=O)O)[C@H]3[C@@H]1CC[C@@H]2O (stereo not given in full)", "Measured on": "Mus musculus", "Label": "Y"}
{"Molecule": "C[C@]12CC[C@@H]3c4ccc(O)cc4C[C@@H](CCCCCCCCCC(CCCC(F)(F)C(F)(F)F)C(=O)O)[C@H]3[C@@H]1CC[C@@H]2O (stereo not given in full)", "Measured on": "Mus musculus", "Label": "N"}
{"Molecule": "C[C@]12CC[C@@H]3c4ccc(O)cc4C[C@@H](CCCCCCCCC(CCC(F)(F)C(F)(F)C(F)(F)C(F)(F)F)C(=O)O)[C@H]3[C@@H]1CC[C@@H]2O (stereo not given in full)", "Measured on": "Mus musculus", "Label": "Y"}
{"Molecule": "C[C@]12CC[C@@H]3c4ccc(O)cc4C[C@@H](CCCCCCCC[C@@H](CCCC(F)(F)C(F)(F)C(F)(F)C(F)(F)F)C(=O)O)[C@H]3[C@@H]1CCC2=O", "Measured on": "Mus musculus", "Label": "Y"}

---

Test: AUC in cynomolgus monkey at 3 mg/kg, po
Type: ADME, organism-based, Macaca fascicularis
Set-up: dose 3 mg/kg, route oral
Details: plasma
# reported AUC; entries follow

{"Smi": "C[C@]12CC[C@@H]3c4ccc(O)cc4C[C@@H](CCCCCCCC[C@@H](CCCC(F)(F)C(F)(F)C(F)(F)C(F)(F)F)C(=O)O)[C@H]3[C@@H]1CC[C@@H]2O", "AUC [ng·h/mL]": 420}
{"Smi": "C[C@]12CC[C@@H]3c4ccc(O)cc4C[C@@H](CCCCCCCC[C@H](CCCC(F)(F)C(F)(F)C(F)(F)C(F)(F)F)C(=O)O)[C@H]3[C@@H]1CC[C@@H]2O", "AUC [ng·h/mL]": 300}
{"Smi": "C[C@]12CC[C@@H]3c4ccc(O)cc4C[C@@H](CCCCCCCC[C@@H](CCCC(F)(F)C(F)(F)C(F)(F)C(F)(F)F)C(=O)O)[C@H]3[C@@H]1CCC2=O", "AUC [ng·h/mL]": 2420}
